Data credit: patent US8937058B2

TARGET: androgen receptor (Homo sapiens (Human))
PROCEDURE_SUMMARY: cell-based
pEC50: −log10 of the molar value.
Would you mind labelling by pEC50? At or over 8 is met, under is not met.

Please review the following examples before continuing.
CC[C@]12CC[C@H]3[C@@H](CCC4=CC(=O)CC[C@@H]43)[C@@H]1CC[C@@]21C=CC(=O)O1 (stereo in doubt)    not met
CC[C@]12CC[C@H]3[C@@H]([C@H](C)CC4=CC(=O)CC[C@@H]43)[C@@H]1CC[C@@]21C=CC(=O)O1 (stereo in doubt)    met

Okay, now this compound:
Problem: Reported pEC50 at or above 8? CC[C@]12CC[C@H]3[C@@H](C=CC4=CC(=O)CC[C@@H]43)[C@@H]1CC[C@@]21C=CC(=O)O1 (stereo in doubt)
Solution: not met

###

TARGET: androgen receptor (Homo sapiens (Human))
CONDITION_PARAMETERS: read-out: Androgen receptor IC50; receptor binding, 3H-testosterone displacement
Consider the following compounds and their measured IC50 readings.
Numbers only; they are read as nM.

CC[C@]12CC[C@H]3[C@@H](CCC4=C(Cl)C(=O)CC[C@@H]43)[C@@H]1CC[C@@]21C=CC(=O)O1    170
CC[C@]12CC[C@H]3[C@@H](CCC4=CC(=O)CC[C@@H]43)[C@@H]1CC[C@@]21C=CC(=O)O1 (stereo in doubt)    28

Problem: Name the recorded IC50 of the item CC[C@]12CC[C@H]3[C@@H](C=CC4=CC(=O)CC[C@@H]43)[C@@H]1CC[C@@]21C=CC(=O)O1 (stereo in doubt) in your answer.
Solution: 2600

###

TARGET: mineralocorticoid receptor (Homo sapiens (Human), UniProt P08235)
Sequence (P08235 whole entry): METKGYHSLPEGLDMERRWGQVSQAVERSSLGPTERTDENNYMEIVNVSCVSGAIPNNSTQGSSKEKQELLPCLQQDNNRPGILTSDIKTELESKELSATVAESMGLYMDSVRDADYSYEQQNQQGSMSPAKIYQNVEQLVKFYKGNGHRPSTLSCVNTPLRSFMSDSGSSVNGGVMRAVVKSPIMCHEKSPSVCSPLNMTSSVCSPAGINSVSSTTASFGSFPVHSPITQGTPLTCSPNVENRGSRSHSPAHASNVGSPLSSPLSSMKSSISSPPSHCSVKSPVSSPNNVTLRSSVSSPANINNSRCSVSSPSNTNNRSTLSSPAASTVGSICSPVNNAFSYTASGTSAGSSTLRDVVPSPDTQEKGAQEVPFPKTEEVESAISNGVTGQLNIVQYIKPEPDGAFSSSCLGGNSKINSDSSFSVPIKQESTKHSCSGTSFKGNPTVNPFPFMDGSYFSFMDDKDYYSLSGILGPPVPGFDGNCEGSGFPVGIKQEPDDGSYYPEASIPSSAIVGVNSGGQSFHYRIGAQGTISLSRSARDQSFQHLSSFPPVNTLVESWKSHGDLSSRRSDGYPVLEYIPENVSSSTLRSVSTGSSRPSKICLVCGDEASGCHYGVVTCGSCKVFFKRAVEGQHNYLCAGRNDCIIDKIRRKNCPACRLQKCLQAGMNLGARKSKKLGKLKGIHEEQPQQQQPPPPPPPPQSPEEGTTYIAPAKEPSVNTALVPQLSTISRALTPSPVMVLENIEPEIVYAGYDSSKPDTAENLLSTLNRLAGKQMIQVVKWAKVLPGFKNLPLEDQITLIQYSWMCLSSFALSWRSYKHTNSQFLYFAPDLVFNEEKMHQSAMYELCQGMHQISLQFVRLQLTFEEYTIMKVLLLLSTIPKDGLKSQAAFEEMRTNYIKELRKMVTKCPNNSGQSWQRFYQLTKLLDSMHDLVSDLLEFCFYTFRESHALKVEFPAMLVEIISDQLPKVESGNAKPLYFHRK
PROCEDURE_SUMMARY: Antimineralocorticoid action by transactivation test (MDCK luciferase reporter cells)
Assay type: cell-based
CONDITION_PARAMETERS: in-vitro transactivation, 1 nM aldosterone
Attribute: Mineralocorticoid receptor Antagonism efficacy
Write it as a number; the unit % goes unstated.

CC[C@@H]1CC2=CC(=O)CC[C@@H]2[C@H]2CC[C@@]3(C)[C@@H](CC[C@@]34C=CC(=O)O4)[C@H]12 (stereo in doubt)    55.9
CC[C@@H]1CC2=CC(=O)CC[C@@H]2[C@H]2CC[C@@]3(CC)[C@@H](CC[C@@]34C=CC(=O)O4)[C@H]12 (stereo in doubt)    97.6
C[C@]12CC[C@H]3[C@@H](CCC4=C(Cl)C(=O)CC[C@@H]43)[C@@H]1CC[C@@]21C=CC(=O)O1    21.6
C=C[C@@H]1CC2=CC(=O)CC[C@@H]2[C@H]2CC[C@@]3(CC)[C@@H](CC[C@@]34C=CC(=O)O4)[C@@H]21 (stereo in doubt) [Example 10A]    80.0
C[C@]12CCC(=O)C=C1[C@@H]1C[C@@H]1[C@H]1[C@@H]3[C@@H]4C[C@@H]4[C@@]4(CCC(=O)O4)[C@@]3(C)CC[C@@H]12 [A, reference compound]    64.1

# input for lookup
Problem: Let me know recorded Mineralocorticoid receptor Antagonism efficacy for CC[C@]12CC[C@H]3[C@@H](C=CC4=CC(=O)CC[C@@H]43)[C@@H]1CC[C@@]21C=CC(=O)O1 (stereo in doubt) , thanks.
Solution: 94.2

###

TARGET: androgen receptor (Homo sapiens (Human))
PROCEDURE_SUMMARY: cell-based
CONDITION_PARAMETERS: in-vitro transactivation, PC3 cells, 0.05 nM R1881
Form field: Androgen receptor Antagonism efficacy (one value per entry).
Respond with the bare value in %.

// known answers, use as guide
C=C[C@@H]1CC2=CC(=O)CC[C@@H]2[C@H]2CC[C@@]3(C)[C@@H](CC[C@@]34C=CC(=O)O4)[C@@H]21 (stereo in doubt) [Example 4A]    5
C[C@]12CC[C@H]3[C@@H](CC4(CC4)C4=CC(=O)CC[C@@H]43)[C@@H]1CC[C@@]21C=CC(=O)O1 [Example 18]    5

As a next step, examine the compound that follows.
Problem: Give the value of Androgen receptor Antagonism efficacy reported for the following: CC[C@]12CC[C@H]3[C@@H](CCC4=CC(=O)CC[C@@H]43)[C@@H]1CC[C@@]21C=CC(=O)O1 (stereo in doubt) [Example 6]
Solution: 33.8

###

TARGET: progesterone receptor (Homo sapiens (Human), UniProt P06401)
Sequence (P06401 whole entry, species assumed): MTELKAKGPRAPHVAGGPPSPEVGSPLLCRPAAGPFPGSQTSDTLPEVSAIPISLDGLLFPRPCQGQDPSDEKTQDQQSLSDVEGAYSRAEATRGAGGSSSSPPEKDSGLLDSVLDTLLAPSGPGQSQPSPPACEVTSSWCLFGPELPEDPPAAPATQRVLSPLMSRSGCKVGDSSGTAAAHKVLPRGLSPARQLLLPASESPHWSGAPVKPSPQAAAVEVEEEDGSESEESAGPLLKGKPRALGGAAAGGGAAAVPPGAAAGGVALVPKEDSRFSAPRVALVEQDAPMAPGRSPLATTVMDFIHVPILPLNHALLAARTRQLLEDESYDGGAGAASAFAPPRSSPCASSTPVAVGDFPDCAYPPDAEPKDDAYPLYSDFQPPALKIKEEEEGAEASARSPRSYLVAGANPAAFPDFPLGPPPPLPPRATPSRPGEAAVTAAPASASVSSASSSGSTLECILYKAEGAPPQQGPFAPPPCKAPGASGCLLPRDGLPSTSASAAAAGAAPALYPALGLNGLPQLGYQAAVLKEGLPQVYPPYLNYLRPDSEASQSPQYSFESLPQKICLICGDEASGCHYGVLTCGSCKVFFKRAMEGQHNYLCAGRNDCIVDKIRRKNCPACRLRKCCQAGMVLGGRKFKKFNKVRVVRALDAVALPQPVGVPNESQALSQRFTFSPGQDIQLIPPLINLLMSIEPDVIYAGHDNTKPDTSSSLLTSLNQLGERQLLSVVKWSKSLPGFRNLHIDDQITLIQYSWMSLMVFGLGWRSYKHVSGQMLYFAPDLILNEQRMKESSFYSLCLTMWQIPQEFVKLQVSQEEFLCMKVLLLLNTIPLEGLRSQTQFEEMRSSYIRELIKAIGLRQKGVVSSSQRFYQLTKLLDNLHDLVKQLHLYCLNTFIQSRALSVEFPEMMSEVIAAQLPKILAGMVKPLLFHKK
CONDITION_PARAMETERS: ratio of the competition factors CF(PR) and CF(MR)
Note to self: CF PR/CF MR under 2 means Satisfied, ties and anything higher get Not satisfied.

CC[C@]12CC[C@H]3[C@@H]([C@H](C4CC4)CC4=CC(=O)CC[C@@H]43)[C@@H]1CC[C@@]21C=CC(=O)O1 (stereo in doubt) [Example 11A]    Not satisfied
C[C@]12CC[C@H]3[C@@H]([C@H](C4CC4)CC4=CC(=O)CC[C@@H]43)[C@@H]1CC[C@@]21C=CC(=O)O1 (stereo in doubt) [Example 12A]    Not satisfied
C[C@]12CC[C@H]3[C@@H](CCC4=C(Cl)C(=O)CC[C@@H]43)[C@@H]1CC[C@@]21C=CC(=O)O1 [Example 14]    Satisfied

Problem: For CC[C@]12CC[C@H]3[C@@H]([C@H](C)CC4=CC(=O)CC[C@@H]43)[C@@H]1CC[C@@]21C=CC(=O)O1 (stereo in doubt) [Example 8A] , is the recorded CF PR/CF MR below the cut-off of 2?
Solution: Not satisfied

Problem: Report whether reported CF PR/CF MR is lower than 2 (strictly) for C=C[C@@H]1CC2=CC(=O)CC[C@@H]2[C@H]2CC[C@@]3(C)[C@@H](CC[C@@]34C=CC(=O)O4)[C@@H]21 (stereo in doubt) [Example 4A]
Solution: Satisfied

Problem: Strictly below 2: is that where CF PR/CF MR of CC[C@@H]1CC2=CC(=O)CC[C@@H]2[C@H]2CC[C@@]3(C)[C@@H](CC[C@@]34C=CC(=O)O4)[C@H]12 (stereo in doubt) [Example 3A] sits?
Solution: Not satisfied

Problem: Determine whether this compound shows CF PR/CF MR lower than 2 (ties excluded): CC[C@@H]1CC2=CC(=O)CC[C@@H]2[C@H]2CC[C@@]3(CC)[C@@H](CC[C@@]34C=CC(=O)O4)[C@H]12 (stereo in doubt) [Example 9A]
Solution: Not satisfied

Problem: Could you please tell me whether CF PR/CF MR recorded for CC[C@]12CC[C@H]3[C@@H](C=CC4=CC(=O)CC[C@@H]43)[C@@H]1CC[C@@]21C=CC(=O)O1 (stereo in doubt) [Example 7] is less than 2?
Solution: Satisfied

Problem: Please indicate whether the reported CF PR/CF MR of CC[C@]12CC[C@H]3[C@@H](CCC4=CC(=O)CC[C@@H]43)[C@@H]1CC[C@@]21C=CC(=O)O1 (stereo in doubt) [Example 6] is strictly below 2.
Solution: Satisfied

###

TARGET: androgen receptor (Homo sapiens (Human), UniProt P10275)
Sequence (P10275 whole entry, species assumed): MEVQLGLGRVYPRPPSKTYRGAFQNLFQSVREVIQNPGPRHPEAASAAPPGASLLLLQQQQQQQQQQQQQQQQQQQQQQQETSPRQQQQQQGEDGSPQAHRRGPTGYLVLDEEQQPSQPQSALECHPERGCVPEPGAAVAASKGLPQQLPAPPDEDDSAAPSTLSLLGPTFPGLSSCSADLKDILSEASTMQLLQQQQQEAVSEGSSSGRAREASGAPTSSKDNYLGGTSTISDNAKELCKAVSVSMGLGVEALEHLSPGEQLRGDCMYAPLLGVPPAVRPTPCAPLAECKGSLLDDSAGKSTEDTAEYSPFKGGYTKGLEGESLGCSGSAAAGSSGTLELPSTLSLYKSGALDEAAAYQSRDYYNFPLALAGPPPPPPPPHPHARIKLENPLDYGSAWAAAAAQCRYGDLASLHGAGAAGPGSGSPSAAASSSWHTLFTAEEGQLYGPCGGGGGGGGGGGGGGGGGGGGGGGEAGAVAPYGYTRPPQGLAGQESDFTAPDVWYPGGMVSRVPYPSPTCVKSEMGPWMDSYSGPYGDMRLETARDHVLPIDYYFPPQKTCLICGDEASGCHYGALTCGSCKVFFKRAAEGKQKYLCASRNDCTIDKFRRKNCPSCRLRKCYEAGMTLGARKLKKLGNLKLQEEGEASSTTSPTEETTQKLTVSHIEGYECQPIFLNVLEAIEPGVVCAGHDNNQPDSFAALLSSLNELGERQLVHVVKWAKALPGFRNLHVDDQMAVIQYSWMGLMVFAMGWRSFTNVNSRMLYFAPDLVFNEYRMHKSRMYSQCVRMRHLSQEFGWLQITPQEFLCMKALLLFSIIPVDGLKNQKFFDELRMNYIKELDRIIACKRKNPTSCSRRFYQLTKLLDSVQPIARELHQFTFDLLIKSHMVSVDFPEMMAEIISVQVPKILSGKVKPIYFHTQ
CONDITION_PARAMETERS: read-out: Androgen receptor IC50; receptor binding, 3H-testosterone displacement
ATTRIBUTE_MEASURED: IC50
Remember to quote the unit after the number.

CC[C@@H]1CC2=CC(=O)CC[C@@H]2[C@H]2CC[C@@]3(CC)[C@@H](CC[C@@]34C=CC(=O)O4)[C@H]12 (stereo in doubt)    76 nM
C[C@]12CC[C@H]3[C@@H](CCC4=C(Cl)C(=O)CC[C@@H]43)[C@@H]1CC[C@@]21C=CC(=O)O1    140 nM
C[C@]12CC[C@H]3[C@@H](C=CC4=CC(=O)CC[C@@H]43)[C@@H]1CC[C@@]21C=CC(=O)O1 (stereo in doubt)    10000 nM

Problem: Give recorded IC50. CC[C@@H]1CC2=CC(=O)CC[C@@H]2[C@H]2CC[C@@]3(C)[C@@H](CC[C@@]34C=CC(=O)O4)[C@H]12 (stereo in doubt)
Solution: 89 nM

Problem: Indicate the recorded IC50 value for this compound: C=C[C@@H]1CC2=CC(=O)CC[C@@H]2[C@H]2CC[C@@]3(CC)[C@@H](CC[C@@]34C=CC(=O)O4)[C@@H]21 (stereo in doubt) [Example 10A]
Solution: 50 nM

###

TARGET: mineralocorticoid receptor (Homo sapiens (Human), UniProt P08235)
PROCEDURE_SUMMARY: Mineralocorticoid receptor binding test (displacement of 3H-aldosterone, cytosol from Hi5 insect cells)
CONDITION_PARAMETERS: reference substance 3H-aldosterone
Description: 2. Mineralocorticoid Receptor Binding Test: The test was carried out as in 1., with the following modifications: cytosol from mineralocorticoid receptor-expressing insect cells (Hi5) was used, and the reference substance was ^3H-aldosterone.
ATTRIBUTE_MEASURED: Mineralocorticoid receptor (MR) Competition factor
In your answer, state the number alone without any accompanying words.

Recorded Mineralocorticoid receptor (MR) Competition factor, per entry:
CC[C@]12CC[C@H]3[C@@H](C=CC4=CC(=O)CC[C@@H]43)[C@@H]1CC[C@@]21C=CC(=O)O1 (stereo in doubt)    3.9
C[C@@H]1CC2=CC(=O)CC[C@@H]2[C@H]2CC[C@@]3(C)[C@@H](CC[C@@]34C=CC(=O)O4)[C@@H]21 (stereo in doubt)    7.6
C[C@]12CC[C@H]3[C@@H](CCC4=C(Cl)C(=O)CC[C@@H]43)[C@@H]1CC[C@@]21C=CC(=O)O1    39.0

Kindly review the next compound as well.
Problem: Read the entry CC[C@@H]1CC2=CC(=O)CC[C@@H]2[C@H]2CC[C@@]3(CC)[C@@H](CC[C@@]34C=CC(=O)O4)[C@H]12 (stereo in doubt) and write its reported Mineralocorticoid receptor (MR) Competition factor.
Solution: 1.6
